test: The drug is tested on Collinsella aerofaciens strain: ATCC25986 for biotransformation. The drug concentrations were measured before and after a 12-h incubation by liquid-chromatography-coupled mass spectrometry (LC–MS); details: 2 µM
RECORDED_METRIC: Bacterial Biotransformation

Worked examples follow.
[
  {
    "COMPOUND": "CC(CN1c2ccccc2Sc2ccccc21)N(C)C (stereo not given)",
    "RESULT": "Compound NOT metabolized"
  },
  {
    "COMPOUND": "CCOc1ccc(NC(C)=O)cc1",
    "RESULT": "Compound NOT metabolized"
  },
  {
    "COMPOUND": "CC(C)(Oc1ccc(CCNC(=O)c2ccc(Cl)cc2)cc1)C(=O)O [BEZAFIBRATE]",
    "RESULT": "Compound metabolized"
  },
  {
    "COMPOUND": "CN(CCOc1ccc(CC2SC(=O)NC2=O)cc1)c1ccccn1.O=C(O)/C=C\\C(=O)O (stereo not given) [ROSIGLITAZONE MALEATE]",
    "RESULT": "Compound NOT metabolized"
  },
  {
    "COMPOUND": "CCCCC1=NC2(CCCC2)C(=O)N1Cc1ccc(-c2ccccc2-c2nnn[nH]2)cc1",
    "RESULT": "Compound metabolized"
  }
]

Answer with the recorded Bacterial Biotransformation for the compound listed here: CC(N)C12CC3CC(CC(C3)C1)C2 (stereo not given)
Compound NOT metabolized

Fill in reported Bacterial Biotransformation for this entry: COc1ccccc1OCC(O)CN1CCN(CC(=O)Nc2c(C)cccc2C)CC1 (stereo not given)
Compound NOT metabolized

In one line, give reported Bacterial Biotransformation of the entry Cc1nc2n(c(=O)c1CCN1CCC(c3noc4cc(F)ccc34)CC1)CCCC2O (stereo not given) .
Compound metabolized

Using the record for CCN(CC)CCOCCOC(=O)C1(c2ccccc2)CCCC1.O=C(O)CC(O)(CC(=O)O)C(=O)O [CARBETAPENTANE CITRATE] , state its measured Bacterial Biotransformation.
Compound metabolized

Supply measured Bacterial Biotransformation of C[C@@H](CO)NC(=O)[C@@H]1C=C2c3cccc4[nH]cc(c34)C[C@H]2N(C)C1.O=C(O)/C=C\C(=O)O [ERGONOVINE MALEATE] in your reply.
Compound metabolized

Report measured Bacterial Biotransformation; entry is `C[C@@H]1CC[C@H]2[C@@H](C)C(=O)O[C@@H]3O[C@@]4(C)CC[C@@H]1[C@]32OO4`
Compound metabolized

Given `O=C(O)c1cc(/N=N/c2ccc(S(=O)(=O)Nc3ccccn3)cc2)ccc1O` , respond with its Bacterial Biotransformation.
Compound metabolized

Retrieve Bacterial Biotransformation measured for `CN1CC(=O)N2[C@H](c3ccc4c(c3)OCO4)c3[nH]c4ccccc4c3C[C@@H]2C1=O` and print it.
Compound NOT metabolized

Output Bacterial Biotransformation of CC(C)NCC(O)COc1ccc(COCCOC(C)C)cc1.CC(C)NCC(O)COc1ccc(COCCOC(C)C)cc1.O=C(O)/C=C/C(=O)O (stereo not given) [BISOPROLOL FUMARATE]
Compound NOT metabolized

Give the value of Bacterial Biotransformation reported for the following: CC(C)OC(=O)C(C)(C)Oc1ccc(C(=O)c2ccc(Cl)cc2)cc1 [FENOFIBRATE]
Compound NOT metabolized

Identify the reported Bacterial Biotransformation for the following entry. O=C1C(CC[S+]([O-])c2ccccc2)C(=O)N(c2ccccc2)N1c1ccccc1 (stereo not given)
Compound NOT metabolized

Entry NS(=O)(=O)c1cc2c(cc1Cl)N=C(CSCc1ccccc1)NS2(=O)=O [BENZTHIAZIDE] needs its Bacterial Biotransformation filled in; supply it.
Compound NOT metabolized

Specify measured Bacterial Biotransformation for `Cc1nc(Nc2ncc(C(=O)Nc3c(C)cccc3Cl)s2)cc(N2CCN(CCO)CC2)n1.O` .
Compound NOT metabolized

Supply reported Bacterial Biotransformation belonging to this compound: COc1c(C)c2c(c(O)c1C/C=C(\C)CCC(=O)OCCN1CCOCC1)C(=O)OC2 [MYCOPHENOLATE MOFETIL]
Compound metabolized

# return recorded Bacterial Biotransformation for input COc1cc2nc(N3CCN(C(=O)C4CCCO4)CC3)nc(N)c2cc1OC (stereo not given)
Compound NOT metabolized

----------
target: SGNH hydrolase-type esterase domain-containing protein (Phocaeicola dorei, UniProt B6W1J1); test: The drug is tested on Bacteroides dorei strain: DSM17855 for biotransformation. The drug concentrations were measured before and after a 12-h incubation by liquid-chromatography-coupled mass spectrometry (LC–MS); assay type: ADME; set-up: dose 2 uM; conditions: 2 µM
Sequence (B6W1J1 whole entry, the tested form may be a part): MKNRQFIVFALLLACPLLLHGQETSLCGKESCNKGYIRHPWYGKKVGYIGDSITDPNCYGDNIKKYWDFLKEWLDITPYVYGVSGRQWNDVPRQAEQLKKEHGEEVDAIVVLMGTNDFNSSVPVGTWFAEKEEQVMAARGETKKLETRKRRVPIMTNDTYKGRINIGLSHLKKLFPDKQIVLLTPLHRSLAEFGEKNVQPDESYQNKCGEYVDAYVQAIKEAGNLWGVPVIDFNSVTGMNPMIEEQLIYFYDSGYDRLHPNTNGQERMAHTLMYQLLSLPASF
RECORDED_METRIC: Bacterial Biotransformation

Some molecules with known Bacterial Biotransformation results, for comparison:
[
  {
    "MOLECULE": "COc1ccc([C@@H]2Sc3ccccc3N(CCN(C)C)C(=O)[C@@H]2OC(C)=O)cc1",
    "Bacterial Biotransformation": "Compound NOT metabolized"
  },
  {
    "MOLECULE": "CC(=O)Nc1ccc(OC(C)=O)cc1 [DIACETAMATE]",
    "Bacterial Biotransformation": "Compound metabolized"
  },
  {
    "MOLECULE": "C[C@@H]1CC[C@H]2[C@@H](C)C(=O)O[C@@H]3O[C@@]4(C)CC[C@@H]1[C@]32OO4",
    "Bacterial Biotransformation": "Compound NOT metabolized"
  },
  {
    "MOLECULE": "O=C(O)c1cc(/N=N/c2ccc(S(=O)(=O)Nc3ccccn3)cc2)ccc1O",
    "Bacterial Biotransformation": "Compound NOT metabolized"
  }
]

Give Bacterial Biotransformation for `CC(=O)Oc1ccc(C(c2ccc(OC(C)=O)cc2)c2ccccn2)cc1`
Compound metabolized

Kindly indicate its recorded Bacterial Biotransformation. Item: COc1ccnc(C[S+]([O-])c2nc3ccc(OC(F)F)cc3[nH]2)c1OC (stereo unspecified)
Compound metabolized

Item `N#Cc1ccc2c(c1)N(CCCN1CCC(O)CC1)c1ccccc1S2` : provide Bacterial Biotransformation
Compound NOT metabolized

Quick one: give measured Bacterial Biotransformation for CC(=O)SCC(Cc1ccccc1)C(=O)NCC(=O)OCc1ccccc1 (stereo unspecified)
Compound NOT metabolized

Report Bacterial Biotransformation, nothing else, for this molecule: `C#C[C@]1(O)CC[C@H]2[C@@H]3CCC4=CC(=O)CC[C@@H]4[C@H]3CC[C@@]21CC`
Compound NOT metabolized

Specify reported Bacterial Biotransformation for the molecule shown: CCOC(=O)C1=C(C)NC(C)=C(C(=O)OC)C1c1cccc([N+](=O)[O-])c1 (stereo unspecified)
Compound NOT metabolized

Consider the molecule `CCS(=O)(=O)CCn1c([N+](=O)[O-])cnc1C` and give its recorded Bacterial Biotransformation.
Compound NOT metabolized

----------
test: The drug is tested on Bacteroides pectinophilus strain: ATCC43243 for biotransformation. The drug concentrations were measured before and after a 12-h incubation by liquid-chromatography-coupled mass spectrometry (LC–MS); conditions: 2 µM
RECORDED_METRIC: Bacterial Biotransformation

A selection of reference data follows.
[
  {
    "COMPOUND": "CCCCCCOC(=O)/N=C(/N)c1ccc(NCc2nc3cc(C(=O)N(CCC(=O)OCC)c4ccccn4)ccc3n2C)cc1.CS(=O)(=O)O [DABIGATRAN ETEXILATE MESYLATE]",
    "Bacterial Biotransformation": "Compound NOT metabolized"
  },
  {
    "COMPOUND": "O=C(NCc1ccccc1)OCCO [BURAMATE]",
    "Bacterial Biotransformation": "Compound NOT metabolized"
  },
  {
    "COMPOUND": "COc1c(C)c2c(c(O)c1C/C=C(\\C)CCC(=O)OCCN1CCOCC1)C(=O)OC2 [MYCOPHENOLATE MOFETIL]",
    "Bacterial Biotransformation": "Compound metabolized"
  },
  {
    "COMPOUND": "Cc1nc(-c2ccc(OCC(C)C)c(C#N)c2)sc1C(=O)O [FEBUXOSTAT]",
    "Bacterial Biotransformation": "Compound NOT metabolized"
  },
  {
    "COMPOUND": "CO[C@]12C[C@@H](COC(=O)c3cncc(Br)c3)CN(C)[C@@H]1Cc1cn(C)c3cccc2c13 [NICERGOLINE]",
    "Bacterial Biotransformation": "Compound NOT metabolized"
  }
]

Identify measured Bacterial Biotransformation corresponding to CN1[C@@H]2CC[C@H]1C[C@@H](OC(=O)C(CO)c1ccccc1)C2 (stereo partly drawn) [ATROPINE]
Compound NOT metabolized

Name the recorded Bacterial Biotransformation of the item COc1c2occc2cc2ccc(=O)oc12 [METHOXSALEN] in your answer.
Compound NOT metabolized

State, in one line, measured Bacterial Biotransformation of COc1cc2nc(N3CCN(C(=O)C4CCCO4)CC3)nc(N)c2cc1OC (stereo not drawn) [TERAZOSIN]
Compound NOT metabolized

Return Bacterial Biotransformation for the following compound: CCCc1nn(C)c2c(=O)[nH]c(-c3cc(S(=O)(=O)N4CCN(C)CC4)ccc3OCC)nc12.O=C(O)CC(O)(CC(=O)O)C(=O)O [SILDENAFIL CITRATE]
Compound NOT metabolized

Consider the compound CC(=O)SCC(Cc1ccccc1)C(=O)NCC(=O)OCc1ccccc1 (stereo not drawn) [RACECADOTRIL] . State its measured Bacterial Biotransformation.
Compound metabolized

Indicate the recorded Bacterial Biotransformation value for this compound: O=C(O)COCCN1CCN(C(c2ccccc2)c2ccc(Cl)cc2)CC1 (stereo not drawn) [CETIRIZINE]
Compound metabolized

Please give measured Bacterial Biotransformation of the following entry: COc1cc(C(=O)NCc2ccc(OCCN(C)C)cc2)cc(OC)c1OC [TRIMETHOBENZAMIDE]
Compound NOT metabolized

Complete the entry with Bacterial Biotransformation for COc1ccc(C(CN(C)C)C2(O)CCCCC2)cc1 (stereo not drawn) [VENLAFAXINE]
Compound NOT metabolized

Identify the reported Bacterial Biotransformation for the following entry. OCCOCCN1CCN(C2=Nc3ccccc3Sc3ccccc32)CC1 [QUETIAPINE]
Compound NOT metabolized

Specify Bacterial Biotransformation for CC(C)(C)NC(=O)[C@H]1CC[C@H]2[C@@H]3CC[C@H]4NC(=O)C=C[C@]4(C)[C@H]3CC[C@]12C [FINASTERIDE] and stop.
Compound NOT metabolized

Kindly indicate its recorded Bacterial Biotransformation. Item: CC(=O)CC(c1ccccc1)c1c(O)c2ccccc2oc1=O (stereo not drawn) [WARFARIN]
Compound NOT metabolized
